Data provenance: paper PMC2963183

# experimental_system: acid phosphatase (ACP)
# Construct: native, crude nervous tissue homogenate supernatant (5000 g), not purified; isoenzyme not identified
# experiment: 4-nitrophenol release, […] nm
# Format: biochemical, Lymnaea acuminata
# experimental_context: 4-nitrophenyl phosphate, citrate acid buffer, 37°C, 15 min preincubation at 25°C; tissue homogenate supernatant; competitive
measured_metric: IC50 (µM)

[[record]]
record_smiles = "C=CCc1cc(OC)c2c(c1)OCO2"
result = 70


###

# experimental_system: alkaline phosphatase (ALP)
# Construct: native, crude nervous tissue homogenate supernatant (5000 g), not purified; isoenzyme not identified
# experiment: 4-nitrophenol release, […] nm
# Type: biochemical, Lymnaea acuminata
# experimental_context: 4-nitrophenyl phosphate, glycine-NaOH buffer, MgCl2, 37°C, 15 min preincubation at 25°C; tissue homogenate supernatant; uncompetitive
measured_metric: IC50 (µM)

[[record]]
record_smiles = "C=CCc1cc(OC)c2c(c1)OCO2"
experimental_system = "alkaline phosphatase (ALP)"
result_unit = "µM"
result = 60


###

# experimental_system: acid phosphatase (ACP)
# Construct: native, crude nervous tissue homogenate supernatant (5000 g), not purified; isoenzyme not identified
# experiment: 4-nitrophenol release, […] nm
# Format: biochemical, Lymnaea acuminata
# experimental_context: 4-nitrophenyl phosphate, citrate acid buffer, 37°C, 15 min preincubation at 25°C; tissue homogenate supernatant; uncompetitive
pIC50: −log10 of the molar value.
measured_metric: pIC50

[[record]]
compound = "CCCCCCCCCCCCCC(=O)OCC(COC(=O)CCCCCCCCCCCCC)OC(=O)CCCCCCCCCCCCC [trimyristin, 1,2,3-tritetradecanoylglycerol]"
measured_metric = "pIC50"
result = 3.80

